System: 454973-116-R2-J3-PDC complex spheroid viability
assay text: Anticancer human tumor 454973-116-R2-J3-PDC patient-derived pancreatic carcinoma cell line growth inhibition [POLQ]
test conditions: second compound 3.16 µM; first compound 0.0316 µM; stronger effect = lower value
measured parameter: viability, T/C (%)
Give your result in % as a bare value.

Known results for molecules:
Fill blank: measured viability, T/C of the molecule CC1COCCN1c1cc(-c2ccnn2C)c2ccnc(-c3ccn[nH]3)c2n1 (stereo not given) + Cc1cccc(N(C)C(=O)C2C(O)CCN2c2nc(C)cc(C(F)(F)F)c2C#N)c1 is ____. 113

Fill blank: measured viability, T/C of the molecule CC[C@@]1(O)C(=O)OCc2c1cc1n(c2=O)Cc2cc3c(CN(C)C)c(O)ccc3nc2-1 + Cc1cccc(N(C)C(=O)C2C(O)CCN2c2nc(C)cc(C(F)(F)F)c2C#N)c1 is ____. 16.8

Fill blank: measured viability, T/C of the molecule CC[C@@]1(O)C(=O)OCc2c1cc1n(c2=O)Cc2cc3c(CN(C)C)c(O)ccc3nc2-1 + COC1C(OC(N)=O)C(O)C(Oc2ccc3c(O)c(NC(=O)c4ccc(O)c(CC=C(C)C)c4)c(=O)oc3c2C)OC1(C)C is ____. 22.8

Fill blank: measured viability, T/C of the molecule O=C(c1cc(Cc2n[nH]c(=O)c3ccccc23)ccc1F)N1CCN(C(=O)C2CC2)CC1 + Nc1ccc(C#CCN(C(=O)Cc2ncc(C(F)(F)F)cc2C(F)(F)F)c2ccc(F)cc2)nn1 is ____. 111

Please turn your attention to the following entry.
Fill blank: measured viability, T/C of the molecule COc1cccc2c1C(=O)c1c(O)c3c(c(O)c1C2=O)CC(O)(C(=O)CO)CC3OC1CC(N)C(O)C(C)O1 (stereo not given) + COC1C(OC(N)=O)C(O)C(Oc2ccc3c(O)c(NC(=O)c4ccc(O)c(CC=C(C)C)c4)c(=O)oc3c2C)OC1(C)C is ____. 76.4

----------
Tested on: 454973-116-R2-J3-PDC complex spheroid viability
assay text: Anticancer human tumor 454973-116-R2-J3-PDC cell line growth inhibition [POLQ]; active = viability on the fitted dose curve at most 10% of control; inactive = the rest;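 further: spheroids exposed to drugs for seven days before measurement; percent viability relative to DMSO vehicle control wells taken as 100%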
test conditions: second compound 10 µM; first compound 3.16 µM
Select the correct class. Options are active, inactive and nothing else.

Here's what some known entries look like.
Hi, sorry to bother you, what did the test record for CC1COCCN1c1cc(C2(O)CC3CCC(C2)O3)c2cnn(-c3ccn[nH]3)c2n1 (stereo unspecified) + Nc1ccc(C#CCN(C(=O)Cc2ncc(C(F)(F)F)cc2C(F)(F)F)c2ccc(F)cc2)nn1 ? inactive

Hi, sorry to bother you, what did the test record for COc1cc2cc(C(=O)CCC(=O)O)sc2cc1OC + COC1C(OC(N)=O)C(O)C(Oc2ccc3c(O)c(NC(=O)c4ccc(O)c(CC=C(C)C)c4)c(=O)oc3c2C)OC1(C)C ? inactive

Hi, sorry to bother you, what did the test record for CC1COCCN1c1cc(-c2ccnn2C)c2ccnc(-c3ccn[nH]3)c2n1 (stereo unspecified) + Cc1cccc(N(C)C(=O)C2C(O)CCN2c2nc(C)cc(C(F)(F)F)c2C#N)c1 ? inactive

***
Hi, sorry to bother you, what did the test record for COc1ccc([C@@H](O)c2cc(-c3ncnc4cc(N5CCOCC5)ccc34)c(F)cc2Cl)nn1 + Cc1cccc(N(C)C(=O)C2C(O)CCN2c2nc(C)cc(C(F)(F)F)c2C#N)c1 ? inactive

Hi, sorry to bother you, what did the test record for CCCS(=O)(=O)Nc1ccc(F)c(C(=O)c2c[nH]c3ncc(-c4ccc(Cl)cc4)cc23)c1F + Cc1cccc(N(C)C(=O)C2C(O)CCN2c2nc(C)cc(C(F)(F)F)c2C#N)c1 ? inactive

Hi, sorry to bother you, what did the test record for O=C(c1cc(Cc2n[nH]c(=O)c3ccccc23)ccc1F)N1CCN(C(=O)C2CC2)CC1 + COC1C(OC(N)=O)C(O)C(Oc2ccc3c(O)c(NC(=O)c4ccc(O)c(CC=C(C)C)c4)c(=O)oc3c2C)OC1(C)C ? inactive

Hi, sorry to bother you, what did the test record for CC1COCCN1c1cc(C2(O)CC3CCC(C2)O3)c2cnn(-c3ccn[nH]3)c2n1 (stereo unspecified) + COC1C(OC(N)=O)C(O)C(Oc2ccc3c(O)c(NC(=O)c4ccc(O)c(CC=C(C)C)c4)c(=O)oc3c2C)OC1(C)C ? inactive

Hi, sorry to bother you, what did the test record for CCc1cc2c(N3CCc4c(cc(Cn5ccnc5)cc4-c4cn(C)nc4C(F)(F)F)C3=O)cc(C)nc2c(OC)n1 + Cc1cccc(N(C)C(=O)C2C(O)CCN2c2nc(C)cc(C(F)(F)F)c2C#N)c1 ? inactive

Hi, sorry to bother you, what did the test record for COc1ccc([C@@H](O)c2cc(-c3ncnc4cc(N5CCOCC5)ccc34)c(F)cc2Cl)nn1 + COC1C(OC(N)=O)C(O)C(Oc2ccc3c(O)c(NC(=O)c4ccc(O)c(CC=C(C)C)c4)c(=O)oc3c2C)OC1(C)C ? inactive

Hi, sorry to bother you, what did the test record for CC(C)n1c(=O)n(C)c2cnc3cc(F)c(-c4ccc(OCCCN5CCCCC5)nc4)cc3c21 + COC1C(OC(N)=O)C(O)C(Oc2ccc3c(O)c(NC(=O)c4ccc(O)c(CC=C(C)C)c4)c(=O)oc3c2C)OC1(C)C ? inactive

Hi, sorry to bother you, what did the test record for CNCc1ccc(-c2[nH]c3cc(F)cc4c3c2CCNC4=O)cc1 + Nc1ccc(C#CCN(C(=O)Cc2ncc(C(F)(F)F)cc2C(F)(F)F)c2ccc(F)cc2)nn1 ? inactive

Hi, sorry to bother you, what did the test record for COc1ccc([C@@H](O)c2cc(-c3ncnc4cc(N5CCOCC5)ccc34)c(F)cc2Cl)nn1 + Nc1ccc(C#CCN(C(=O)Cc2ncc(C(F)(F)F)cc2C(F)(F)F)c2ccc(F)cc2)nn1 ? inactive

Hi, sorry to bother you, what did the test record for CCc1cc2c(N3CCc4c(cc(Cn5ccnc5)cc4-c4cn(C)nc4C(F)(F)F)C3=O)cc(C)nc2c(OC)n1 + COC1C(OC(N)=O)C(O)C(Oc2ccc3c(O)c(NC(=O)c4ccc(O)c(CC=C(C)C)c4)c(=O)oc3c2C)OC1(C)C ? inactive

Hi, sorry to bother you, what did the test record for CCc1cc2c(N3CCc4c(cc(Cn5ccnc5)cc4-c4cn(C)nc4C(F)(F)F)C3=O)ccnc2c(OC)n1 + Nc1ccc(C#CCN(C(=O)Cc2ncc(C(F)(F)F)cc2C(F)(F)F)c2ccc(F)cc2)nn1 ? inactive

Hi, sorry to bother you, what did the test record for Nc1ccn(C2OC(CO)C(O)C2(F)F)c(=O)n1 (stereo unspecified) + Nc1ccc(C#CCN(C(=O)Cc2ncc(C(F)(F)F)cc2C(F)(F)F)c2ccc(F)cc2)nn1 ? active

Hi, sorry to bother you, what did the test record for CC1COCCN1c1cc(C2(S(C)(=N)=O)CC2)nc(-c2ccnc3[nH]ccc23)n1 (stereo unspecified) + Cc1cccc(N(C)C(=O)C2C(O)CCN2c2nc(C)cc(C(F)(F)F)c2C#N)c1 ? inactive

Hi, sorry to bother you, what did the test record for COc1cc(C2c3cc4c(cc3C(OC3OC5COC(C)OC5C(O)C3O)C3COC(=O)C23)OCO4)cc(OC)c1O (stereo unspecified) + Cc1cccc(N(C)C(=O)C2C(O)CCN2c2nc(C)cc(C(F)(F)F)c2C#N)c1 ? inactive

----------
Test system: 454973-116-R2-J3-PDC complex spheroid viability
assay text: Anticancer human tumor 454973-116-R2-J3-PDC cell line growth inhibition [POLQ];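 further: spheroids exposed to drugs for seven days before measurement; percent viability relative to DMSO vehicle control wells taken as 100%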
test conditions: second compound 1 µM; first compound 3.16 µM; stronger effect = lower value
measured parameter: viability, T/C (%)
Give your result in % as a bare value.

Fill blank: measured viability, T/C of the compound CC1COCCN1c1cc(-c2ccnn2C)c2ccnc(-c3ccn[nH]3)c2n1 (stereo not drawn) + Nc1ccc(C#CCN(C(=O)Cc2ncc(C(F)(F)F)cc2C(F)(F)F)c2ccc(F)cc2)nn1 is ____. 13.6

Fill blank: measured viability, T/C of the compound O=C(Nc1ccc(O)c(NS(=O)(=O)c2ccc(F)cc2)c1)c1ccc(-c2ccccc2)cc1 + Nc1ccc(C#CCN(C(=O)Cc2ncc(C(F)(F)F)cc2C(F)(F)F)c2ccc(F)cc2)nn1 is ____. 109

Please turn your attention to the following entry.
Fill blank: measured viability, T/C of the compound Nc1ccn(C2OC(CO)C(O)C2(F)F)c(=O)n1 (stereo not drawn) + Nc1ccc(C#CCN(C(=O)Cc2ncc(C(F)(F)F)cc2C(F)(F)F)c2ccc(F)cc2)nn1 is ____. 6.68

----------
Catalogue of compounds with associated viability, T/C
System: 454973-116-R2-J3-PDC complex spheroid viability
assay text: Anticancer human tumor 454973-116-R2-J3-PDC cell line growth inhibition [POLQ];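 further: spheroids exposed to drugs for seven days before measurement; percent viability relative to DMSO vehicle control wells taken as 100%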
test conditions: second compound 10 µM; first compound 0.1 µM; stronger effect = lower value

Known results for compounds:
Given the entry COc1ccc([C@@H](O)c2cc(-c3ncnc4cc(N5CCOCC5)ccc34)c(F)cc2Cl)nn1 + Nc1ccc(C#CCN(C(=O)Cc2ncc(C(F)(F)F)cc2C(F)(F)F)c2ccc(F)cc2)nn1 , what viability, T/C was observed with 454973-116-R2-J3-PDC complex spheroid viability? 119%

Given the entry CNCc1ccc(-c2[nH]c3cc(F)cc4c3c2CCNC4=O)cc1 + Nc1ccc(C#CCN(C(=O)Cc2ncc(C(F)(F)F)cc2C(F)(F)F)c2ccc(F)cc2)nn1 , what viability, T/C was observed with 454973-116-R2-J3-PDC complex spheroid viability? 102%

Given the entry Nc1ccn(C2OC(CO)C(O)C2(F)F)c(=O)n1 (stereo unspecified) + Cc1cccc(N(C)C(=O)C2C(O)CCN2c2nc(C)cc(C(F)(F)F)c2C#N)c1 , what viability, T/C was observed with 454973-116-R2-J3-PDC complex spheroid viability? 14.2%

Given the entry O=c1[nH]cc(F)c(=O)[nH]1 + COC1C(OC(N)=O)C(O)C(Oc2ccc3c(O)c(NC(=O)c4ccc(O)c(CC=C(C)C)c4)c(=O)oc3c2C)OC1(C)C , what viability, T/C was observed with 454973-116-R2-J3-PDC complex spheroid viability? 108%

Given the entry CC1COCCN1c1cc(C2(O)CC3CCC(C2)O3)c2cnn(-c3ccn[nH]3)c2n1 (stereo unspecified) + COC1C(OC(N)=O)C(O)C(Oc2ccc3c(O)c(NC(=O)c4ccc(O)c(CC=C(C)C)c4)c(=O)oc3c2C)OC1(C)C , what viability, T/C was observed with 454973-116-R2-J3-PDC complex spheroid viability? 68.4%

Given the entry COc1ccc([C@@H](O)c2cc(-c3ncnc4cc(N5CCOCC5)ccc34)c(F)cc2Cl)nn1 + Cc1cccc(N(C)C(=O)C2C(O)CCN2c2nc(C)cc(C(F)(F)F)c2C#N)c1 , what viability, T/C was observed with 454973-116-R2-J3-PDC complex spheroid viability? 99.9%

Given the entry C=CCn1c(=O)c2cnc(Nc3ccc(N4CCN(C)CC4)cc3)nc2n1-c1cccc(C(C)(C)O)n1 + Nc1ccc(C#CCN(C(=O)Cc2ncc(C(F)(F)F)cc2C(F)(F)F)c2ccc(F)cc2)nn1 , what viability, T/C was observed with 454973-116-R2-J3-PDC complex spheroid viability? 112%

Given the entry O=C(c1cc(Cc2n[nH]c(=O)c3ccccc23)ccc1F)N1CCN(C(=O)C2CC2)CC1 + COC1C(OC(N)=O)C(O)C(Oc2ccc3c(O)c(NC(=O)c4ccc(O)c(CC=C(C)C)c4)c(=O)oc3c2C)OC1(C)C , what viability, T/C was observed with 454973-116-R2-J3-PDC complex spheroid viability? 94%

***
Given the entry C=CC(=O)N1CCN(c2nc(=O)n(-c3c(C)ccnc3C(C)C)c3nc(-c4c(O)cccc4F)c(F)cc23)C(C)C1 (stereo unspecified) + Cc1cccc(N(C)C(=O)C2C(O)CCN2c2nc(C)cc(C(F)(F)F)c2C#N)c1 , what viability, T/C was observed with 454973-116-R2-J3-PDC complex spheroid viability? 102%

Given the entry C#Cc1c(F)ccc2cc(O)cc(-c3ncc4c(N5CC6CCC(C5)N6)nc(OCC56CCCN5CC(F)C6)nc4c3F)c12 (stereo unspecified) + Cc1cccc(N(C)C(=O)C2C(O)CCN2c2nc(C)cc(C(F)(F)F)c2C#N)c1 , what viability, T/C was observed with 454973-116-R2-J3-PDC complex spheroid viability? 38.5%

Given the entry COc1cc(C2c3cc4c(cc3C(OC3OC5COC(C)OC5C(O)C3O)C3COC(=O)C23)OCO4)cc(OC)c1O (stereo unspecified) + Cc1cccc(N(C)C(=O)C2C(O)CCN2c2nc(C)cc(C(F)(F)F)c2C#N)c1 , what viability, T/C was observed with 454973-116-R2-J3-PDC complex spheroid viability? 105%
